Origin of measurements: ChEMBL document CHEMBL1130342

Molecular target: Alpha-2C adrenergic receptor (Homo sapiens)
Sequence (P18825 whole entry): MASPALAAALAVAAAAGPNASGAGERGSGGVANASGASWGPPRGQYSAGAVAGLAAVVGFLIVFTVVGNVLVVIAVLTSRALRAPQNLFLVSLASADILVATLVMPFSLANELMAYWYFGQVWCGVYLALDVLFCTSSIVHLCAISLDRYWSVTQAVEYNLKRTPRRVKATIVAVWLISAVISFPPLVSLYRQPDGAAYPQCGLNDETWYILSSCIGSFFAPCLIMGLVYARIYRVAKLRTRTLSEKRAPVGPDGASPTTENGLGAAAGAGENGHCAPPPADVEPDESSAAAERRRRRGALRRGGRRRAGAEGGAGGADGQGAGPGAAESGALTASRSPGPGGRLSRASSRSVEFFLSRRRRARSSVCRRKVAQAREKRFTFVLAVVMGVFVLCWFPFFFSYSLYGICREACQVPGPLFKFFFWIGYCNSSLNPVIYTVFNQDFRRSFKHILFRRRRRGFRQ
Test: Effective concentration at Alpha-2C adrenergic receptor from CHO-C4 cells
Format: functional, cell-based
observation.type: EC50 (nM)
Respond numerically; units are nM and should not be typed.

* Cc1c(Nc2ncc[nH]2)ccc2c1OCCO2 | 6.6

Now look at this entry.
Provide EC50 value for the following molecule: "Cc1c(Nc2ncc[nH]2)ccc2c1NCCO2"
110

---

# Lookup of reported EC50 keyed by entry
molecular target: Alpha-2B adrenergic receptor (Rattus norvegicus, UniProt P19328); experiment: Effective Concentration at Alpha-2B adrenergic receptor from CHO-RNG cells
Sequence (P19328 whole entry): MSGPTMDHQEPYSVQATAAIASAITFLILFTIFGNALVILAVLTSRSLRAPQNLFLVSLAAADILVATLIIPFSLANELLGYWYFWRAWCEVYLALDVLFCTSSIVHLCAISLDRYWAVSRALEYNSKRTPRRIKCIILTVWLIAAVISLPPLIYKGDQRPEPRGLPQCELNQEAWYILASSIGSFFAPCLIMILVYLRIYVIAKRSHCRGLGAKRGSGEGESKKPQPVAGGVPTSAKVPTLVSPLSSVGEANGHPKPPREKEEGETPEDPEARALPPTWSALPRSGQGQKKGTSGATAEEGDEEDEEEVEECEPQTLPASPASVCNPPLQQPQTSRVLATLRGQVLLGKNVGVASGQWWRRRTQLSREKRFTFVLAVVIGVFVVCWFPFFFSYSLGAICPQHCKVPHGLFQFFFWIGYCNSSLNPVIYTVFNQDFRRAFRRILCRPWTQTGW
Respond numerically; units are nM and should not be typed.

Provide EC50 value for the following compound: "Cc1c(Nc2ncc[nH]2)ccc2c1NCCO2"
470

Provide EC50 value for the following compound: "Cc1c(Nc2ncc[nH]2)ccc2c1OCCO2"
41

Provide EC50 value for the following compound: "COc1c(C(C)(C)C)cc(C)c(Nc2ncc[nH]2)c1C"
1100

---

# Lookup of reported Ki keyed by entry
target: Alpha-2A adrenergic receptor (Homo sapiens, UniProt P08913)
Sequence (P08913 whole entry): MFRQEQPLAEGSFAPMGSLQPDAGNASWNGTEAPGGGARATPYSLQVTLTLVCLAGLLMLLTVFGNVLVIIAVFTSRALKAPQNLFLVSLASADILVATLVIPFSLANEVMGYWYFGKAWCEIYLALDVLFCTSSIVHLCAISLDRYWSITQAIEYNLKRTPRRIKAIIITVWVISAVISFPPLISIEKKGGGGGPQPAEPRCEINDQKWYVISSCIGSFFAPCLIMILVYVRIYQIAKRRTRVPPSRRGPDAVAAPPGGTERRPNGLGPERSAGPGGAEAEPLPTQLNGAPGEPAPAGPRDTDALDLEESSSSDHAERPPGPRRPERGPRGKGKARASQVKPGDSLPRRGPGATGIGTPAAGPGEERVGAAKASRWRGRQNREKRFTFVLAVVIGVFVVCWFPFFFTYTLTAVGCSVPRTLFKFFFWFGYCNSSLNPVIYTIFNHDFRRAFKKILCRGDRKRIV
Respond numerically; units are nM and should not be typed.

- c1c[nH]c(Nc2ccc3nccnc3c2)n1: 3100

Now look at this entry.
Provide Ki value for the following compound: "COc1ccc(Nc2ncc[nH]2)c(C)c1OC"
130

---

# Lookup of reported Ki keyed by entry
biological target: Alpha-2C adrenergic receptor (Homo sapiens); test: Displacement of rauwolscine from human Alpha-2C adrenergic receptor expressed in CHO cells; format: cell-based
Respond numerically; units are nM and should not be typed.

- c1c[nH]c(Nc2ccc3[nH]cnc3c2)n1: 400
- COc1cc(C)c(Nc2ncc[nH]2)cc1C(C)(C)C: 290
- Clc1cccc(Cl)c1Nc1ncc[nH]1: 1100

Provide Ki value for the following compound: "COc1ccc(Nc2ncc[nH]2)c(C)c1OC"
1500

---

Here's a batch of molecules along with measured Ki for Alpha-2B adrenergic receptor (Rattus norvegicus, UniProt P19328).
Respond numerically; units are nM and should not be typed.

Recorded results for 4 molecules are shown here.
• c1c[nH]c(Nc2ccc3[nH]cnc3c2)n1 = 640
• COc1cc(C)c(Nc2ncc[nH]2)cc1C(C)(C)C = 380
• COc1ccc(Nc2ncc[nH]2)c(C)c1OC = 2500
• c1c[nH]c(Nc2ccc3nccnc3c2)n1 = 9300

Enter recorded Ki with Alpha-2B adrenergic receptor (Rattus norvegicus, UniProt P19328) for "Cc1c(Nc2ncc[nH]2)ccc2nccnc12" here.
1200
